// values below are reported pIC50
target: human IDO1 (Homo sapiens); construct: expressed in transfected cells; assay: HEK Human IDO-1 inhibition assay (kynurenine readout, Ehrlich reagent, absorbance 490 nm); type: cell-based; settings: human IDO1/HEK293 cells, incubated 20 hours with compound; 500 nM reference standard = 100% inhibition
pIC50: −log10 of the molar value.

These solved cases illustrate the format of a correct answer.
Molecule | pIC50
CC(C)CN(Cc1ccc(Cl)cc1)c1ccc(OCC(=O)O)cc1NC(=O)Nc1ccc(Cl)cc1F | > 7.00
CCCN(Cc1ccc(Cl)cc1)c1ccc(OCC(=O)O)cc1NC(=O)Nc1ccc(Cl)cc1F | > 7.00
CC(C)CN(c1ccc(OC(C)C(=O)O)cc1NC(=O)Cc1ccc(Cl)cc1F)C1CCCCC1 (racemic) | > 7.00
CC(C)CN(c1ccc(OCC(=O)O)cc1NC(=O)Nc1cc(F)cc(F)c1)C1CCCCC1 | ≤ 7.00
Cc1cc(NC(=O)Nc2cc(OCC(=O)O)ccc2N(CC(C)C)C2CCCCC2)on1 | > 7.00
C=C(C)CN(c1ccc(OC(C)C(=O)O)cc1NC(=O)Nc1ccc(Cl)cc1F)C1CCOCC1 (single isomer, unassigned) [Example 139-2] | > 8.30

Consider the additional molecule presented here.
Prompt line: Can you share its pIC50? I mean this molecule: Cc1ccc(CC(=O)Nc2cc(OC(C)C(=O)O)ccc2N(CC(C)C)C2CCCCC2)cc1 (racemic)
Response line: > 7.00

----------
Item-by-item account of IC50
biological target: human IDO1 (Homo sapiens, UniProt P14902); experiment: HEK Human IDO-1 inhibition assay (kynurenine readout, Ehrlich reagent, absorbance 490 nm); settings: human IDO1/HEK293 cells, incubated 20 hours with compound; 500 nM reference standard = 100% inhibition
Sequence (P14902 whole entry): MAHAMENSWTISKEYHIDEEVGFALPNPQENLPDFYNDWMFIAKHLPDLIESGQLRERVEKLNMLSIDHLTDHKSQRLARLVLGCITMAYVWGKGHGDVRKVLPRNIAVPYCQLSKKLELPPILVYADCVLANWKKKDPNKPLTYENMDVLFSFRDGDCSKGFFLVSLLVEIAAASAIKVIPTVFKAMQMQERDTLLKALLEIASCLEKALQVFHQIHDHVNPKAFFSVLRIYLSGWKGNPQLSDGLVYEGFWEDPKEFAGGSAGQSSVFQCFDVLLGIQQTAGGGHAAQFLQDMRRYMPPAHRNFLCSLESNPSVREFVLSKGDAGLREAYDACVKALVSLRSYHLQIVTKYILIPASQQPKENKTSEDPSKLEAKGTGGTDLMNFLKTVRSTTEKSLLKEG

Known results for compounds:
Compound | IC50
Cc1ccc(CC(=O)Nc2cc(OC(C)C(=O)NS(=O)(=O)C3CC3)ccc2N(CC(C)C)C2CCCCC2)cc1 (racemic) [Example 78] | < 100 nM
CC(C)CN(c1ccc(OCC(=O)O)cc1NC(=O)Nc1cc(Cl)ccc1F)C1CCCCC1 [Example 22] | < 100 nM

Prompt line: Report IC50 for CCCN(Cc1ccccc1)c1ccc(OCC(=O)O)cc1NC(=O)Cc1ccc(Cl)cc1F [Example 165] please.
Response line: ≥ 100 nM

Prompt line: For CCC(Oc1ccc(N(CC(C)C)C2CCCCC2)c(NC(=O)Nc2ccccc2F)c1)C(=O)O (single isomer, unassigned) [Example 81-1] , what is its reported IC50?
Response line: < 5 nM

----------
IC50 for assorted molecules
target: human IDO1 (Homo sapiens); experiment: HEK Human IDO-1 inhibition assay (kynurenine readout, Ehrlich reagent, absorbance 490 nm); settings: human IDO1/HEK293 cells, incubated 20 hours with compound; 500 nM reference standard = 100% inhibition

The following molecules have reported results that may help.
Molecule | Test System | Quantity Name | Observed
CC(C)CN(c1ccc(OCC(=O)O)cc1NC(=O)Nc1ccc(Br)cc1F)C1CCC(F)(F)CC1 [Example 99] | human IDO1 (Homo sapiens) | IC50 | < 5 nM
Cc1ccc(F)cc1NC(=O)Nc1cc(OCC(=O)O)ccc1N(CC(C)C)C1CCCCC1 [Example 30] | human IDO1 (Homo sapiens) | IC50 | ≥ 100 nM

Prompt line: Please report the recorded IC50 for COCCN(c1ccc(OCC(=O)O)cc1NC(=O)Nc1ccc(Cl)cc1F)C1CCCCC1 [Example 116] .
Response line: < 100 nM

----------
Below, each entry is listed alongside its reported IC50.
target: human IDO1 (Homo sapiens, UniProt P14902); construct: expressed in transfected cells; assay: HEK Human IDO-1 inhibition assay (kynurenine readout, Ehrlich reagent, absorbance 490 nm); type: cell-based; details: human IDO1/HEK293 cells, incubated 20 hours with compound; 500 nM reference standard = 100% inhibition

The examples below pair each entry with its known result.
Molecule | Test System | Observed
CC(C)CN(c1ccc(OC(C)C(=O)O)cc1NC(=O)Nc1ccc(C#N)cc1)C1CCCCC1 (single isomer, unassigned) [Example 66-1] | human IDO1 (Homo sapiens, UniProt P14902) | < 100 nM
COc1ccc(NC(=O)Nc2cc(OCC(=O)O)ccc2N(CC(C)C)C2CCCCC2)cc1F [Example 34] | human IDO1 (Homo sapiens, UniProt P14902) | ≥ 100 nM
CCCC(Oc1ccc(N(CC(C)C)C2CCCCC2)c(NC(=O)Nc2cncnc2)c1)C(=O)O (single isomer, unassigned) [Example 88-1] | human IDO1 (Homo sapiens, UniProt P14902) | ≥ 100 nM
Cc1ccc(NC(=O)Nc2cc(OC(C)C(=O)O)ccc2N(CC(C)C)C2CCCCC2)c(F)c1 (single isomer, unassigned) [Example 65-1] | human IDO1 (Homo sapiens, UniProt P14902) | < 100 nM
CC(C)CN(c1cc(F)c(OCC(=O)O)cc1NC(=O)Nc1ccc(C#N)nc1)C1CCCCC1 [Example 128] | human IDO1 (Homo sapiens, UniProt P14902) | ≥ 100 nM

Prompt line: Given the entry CC(C)CN(c1ccc(OCC(=O)O)cc1NC(=O)Nc1cccc(Cl)c1F)C1CCCCC1 [Example 26] , report its measured IC50.
Response line: ≥ 100 nM

Prompt line: Could you tell me which IC50 is on file for CCCC(Oc1ccc(N(CC(C)C)C2CCCCC2)c(NC(=O)Nc2ccc(C)cc2)c1)C(=O)O (single isomer, unassigned) [Example 86-1] ?
Response line: < 100 nM

----------
molecular target: UniProtKB P14902; test: HEK Human IDO-1 inhibition assay (kynurenine readout, Ehrlich reagent, absorbance 490 nm); details: human IDO1/HEK293 cells, incubated 20 hours with compound; 500 nM reference standard = 100% inhibition
pIC50: −log10 of the molar value.
Quantity Name: pIC50

Compound | pIC50
CC(C)CN(c1ccc(OCC(=O)O)cc1NC(=O)Nc1c(F)cccc1F)C1CCCCC1 | ≤ 7.00
CC(C)CN(c1ccc(OCC(=O)O)cc1NC(=O)Nc1ccc(C#N)cc1F)C1CCCCC1 | > 8.30
CC(C)CN(c1ccc(OCC(=O)O)cc1NC(=O)Nc1ccc(C(F)(F)F)c(F)c1)C1CCCCC1 | ≤ 7.00

Prompt line: What pIC50 value was documented for this compound, "CC(C)CN(c1ccc(OCc2ncco2)cc1NC(=O)Nc1ccc(Cl)cc1F)C1CCCCC1" ?
Response line: > 7.00

Prompt line: # get_value(readout='pIC50', item= "COc1cc(F)c(NC(=O)Nc2cc(OCC(=O)O)ccc2N(CC(C)C)C2CCCCC2)cc1F" )
Response line: > 7.00

Prompt line: Any idea what pIC50 was measured for COC1CCC(N(CC(C)C)c2ccc(OCC(=O)O)cc2NC(=O)Nc2ccc(Cl)cc2F)CC1 (centres unmarked) ?
Response line: ≤ 7.00

Prompt line: Dear colleague, I am looking for the recorded pIC50 of the following compound: "CC(C)CN(c1ccc(OCC(=O)O)cc1NC(=O)Cc1ccc(F)cc1F)C1CCCCC1"
Response line: ≤ 7.00

Prompt line: Requested field: pIC50. Item: "Cc1ccc(NC(=O)Nc2cc(OCc3nnn[nH]3)c(F)cc2N(CC(C)C)CC(C)C)cc1"
Response line: > 7.00

----------
target: human IDO1 (Homo sapiens, UniProt P14902); experiment: HEK Human IDO-1 inhibition assay (kynurenine readout, Ehrlich reagent, absorbance 490 nm); conditions: human IDO1/HEK293 cells, incubated 20 hours with compound; 500 nM reference standard = 100% inhibition
Quantity Name: IC50

Here is how some compounds turned out for IC50.
Compound | IC50
COCC(Oc1ccc(N(CC(C)C)C2CCCCC2)c(NC(=O)Nc2ccc(C)cc2)c1)C(=O)O (single isomer, unassigned) [Example 90-2] | < 100 nM
CC(C)CN(c1ccc(OCC(N)=O)cc1NC(=O)Nc1ccc(Cl)cc1F)C1CCCCC1 | ≥ 100 nM
CC(C)CN(c1cc(F)c(OCC(=O)O)cc1NC(=O)Nc1ccc(F)cc1F)C1CCCCC1 | < 100 nM
CC(C)CN(c1ccc(OC(C)C(=O)O)cc1NC(=O)Nc1ccc(C#N)cc1)C1CCCCC1 (racemic) [racemic 66] | ≥ 100 nM
CC(C)CN(c1ccc(OCC(=O)O)cc1NC(=O)Nc1ccc(F)cc1)C1CCCCC1 | < 100 nM

Then this compound:
Prompt line: IC50 of "CC(C)CN(c1ccc(OCC(=O)O)cc1NC(=O)Nc1ccc(Cl)cc1F)C1CCC(F)(F)CC1" on human IDO1 (Homo sapiens, UniProt P14902)?
Response line: < 5 nM

----------
biological target: human IDO1 (Homo sapiens, UniProt P14902); construct: expressed in transfected cells; experiment: HEK Human IDO-1 inhibition assay (kynurenine readout, Ehrlich reagent, absorbance 490 nm); assay type: cell-based; conditions: human IDO1/HEK293 cells, incubated 20 hours with compound; 500 nM reference standard = 100% inhibition
pIC50: −log10 of the molar value.
Quantity Name: pIC50

Sample answers from the record:
Test Smiles | pIC50
COc1ccc(NC(=O)Nc2cc(OCC(=O)O)ccc2N(CC(C)C)C2CCCCC2)c(F)c1 | > 8.30
C=C(C)CN(c1ccc(OCC(=O)O)cc1NC(=O)Nc1ccc(Cl)cc1F)C1CCOCC1 | > 7.00
CC(C)CN(c1ccc(OCC(=O)O)cc1NC(=O)Nc1ccncc1)C1CCCCC1 | ≤ 7.00

Prompt line: What does the record list as pIC50 for "CCCN(Cc1ccccc1)c1ccc(OCC(=O)O)cc1NC(=O)Cc1ccc(C)cc1" ?
Response line: ≤ 7.00

Prompt line: Data request, read-out pIC50, for "Cc1ccc(NC(=O)Nc2cc(OCC(=O)O)ccc2N(CC(C)C)CC(C)C)cc1"
Response line: ≤ 7.00
